System: PANC-1 pancreatic cancer cells
PROCEDURE_DETAILS: MTT cell viability, PANC-1
Assay type: cell-based
CONDITIONS_USED: Homo sapiens, 48 h, mean ± SE
RECORDED_ENDPOINT: IC50
Please report the result as a number followed by the unit.

Lab entry: PANC-1 pancreatic cancer cells assay, compound COc1cc(C2CC(C3=C(C)NC(=S)NC3c3ccc(N(C)C)cc3)=NN2c2ccccc2)ccc1O (stereo not shown) , IC50 = 23.6 µM
